Assay: Binding affinity to Mycobacterium smegmatis ATCC 700084 CYP164A2 at pH7.5
Parameters: species or system Mycolicibacterium smegmatis
pKd: −log10 of the molar value.

MOLECULE | pKd
Clc1ccc(COC(Cn2ccnc2)c2ccc(Cl)cc2Cl)cc1 (stereo unspecified) [ECONAZOLE] | 5.60
Clc1ccccc1C(c1ccccc1)(c1ccccc1)n1ccnc1 [CLOTRIMAZOLE] | 5.92
CCC(C)n1ncn(-c2ccc(N3CCN(c4ccc(OCC5COC(Cn6cncn6)(c6ccc(Cl)cc6Cl)O5)cc4)CC3)cc2)c1=O (stereo unspecified) [ITRACONAZOLE] | 6.11
Clc1ccc(COC(Cn2ccnc2)c2ccc(Cl)cc2Cl)c(Cl)c1 (stereo unspecified) [MICONAZOLE] | 5.61
C[C@@H](c1ncncc1F)[C@](O)(Cn1cncn1)c1ccc(F)cc1F [VORICONAZOLE] | 5.49
CC(=O)N1CCN(c2ccc(OCC3COC(Cn4ccnc4)(c4ccc(Cl)cc4Cl)O3)cc2)CC1 (stereo unspecified) [KETOCONAZOLE] | 5.24

###

Quick reference: log10 of Kd of the listed items.
Assay: Binding affinity to Mycobacterium smegmatis ATCC 700084 CYP164A2 in presence of 0.5 M NaCl at pH7.5
Parameters: species or system Mycolicibacterium smegmatis
Settings: read-out: Kd
MEASURED_PROPERTY: log10 of Kd (log10 of the value in µM)

COMPOUND | log10 of Kd
Clc1ccc(COC(Cn2ccnc2)c2ccc(Cl)cc2Cl)c(Cl)c1 (stereo not given) | 0.75
Clc1ccccc1C(c1ccccc1)(c1ccccc1)n1ccnc1 | 0.42
CCC(C)n1ncn(-c2ccc(N3CCN(c4ccc(OCC5COC(Cn6cncn6)(c6ccc(Cl)cc6Cl)O5)cc4)CC3)cc2)c1=O (stereo not given) | 0.05
C[C@@H](c1ncncc1F)[C@](O)(Cn1cncn1)c1ccc(F)cc1F | 1.29
CC(=O)N1CCN(c2ccc(OCC3COC(Cn4ccnc4)(c4ccc(Cl)cc4Cl)O3)cc2)CC1 (stereo not given) | 0.87

###

Experiment: Binding affinity to Mycobacterium smegmatis ATCC 700084 CYP51 in presence of 0.5 M NaCl at pH7.5
Parameters: species or system Mycolicibacterium smegmatis
Kd values, listed per item

COMPOUND | Kd / µM
Clc1ccccc1C(c1ccccc1)(c1ccccc1)n1ccnc1 | 0.43
C[C@@H](c1ncncc1F)[C@](O)(Cn1cncn1)c1ccc(F)cc1F | 4.57
OC(Cn1cncn1)(Cn1cncn1)c1ccc(F)cc1F | 5.94
Clc1ccc(COC(Cn2ccnc2)c2ccc(Cl)cc2Cl)cc1 (configuration not stated) | 1.66
CCC(C)n1ncn(-c2ccc(N3CCN(c4ccc(OCC5COC(Cn6cncn6)(c6ccc(Cl)cc6Cl)O5)cc4)CC3)cc2)c1=O (configuration not stated) | 3
CC(=O)N1CCN(c2ccc(OCC3COC(Cn4ccnc4)(c4ccc(Cl)cc4Cl)O3)cc2)CC1 (configuration not stated) | 4.59
Clc1ccc(COC(Cn2ccnc2)c2ccc(Cl)cc2Cl)c(Cl)c1 (configuration not stated) | 0.94

###

Target: Mycocyclosin synthase (Mycobacterium tuberculosis, UniProt P9WPP7)
Sequence (P9WPP7 whole entry): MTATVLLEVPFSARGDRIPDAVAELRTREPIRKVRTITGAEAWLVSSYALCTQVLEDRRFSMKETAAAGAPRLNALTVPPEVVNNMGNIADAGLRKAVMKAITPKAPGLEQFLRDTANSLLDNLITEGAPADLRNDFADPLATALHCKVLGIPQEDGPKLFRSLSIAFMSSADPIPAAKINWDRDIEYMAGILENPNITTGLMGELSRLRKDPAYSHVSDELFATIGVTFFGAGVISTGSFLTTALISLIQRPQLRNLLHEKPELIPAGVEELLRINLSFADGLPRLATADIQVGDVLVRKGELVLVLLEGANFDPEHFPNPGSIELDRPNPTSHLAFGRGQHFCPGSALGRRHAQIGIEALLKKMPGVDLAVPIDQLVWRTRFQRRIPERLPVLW
pKd: −log10 of the molar value.

SMILES_RECORD | TGT | pKd
OC(Cn1cncn1)(Cn1cncn1)c1ccc(F)cc1F | Mycocyclosin synthase (Mycobacterium tuberculosis, UniProt P9WPP7) | 5.22

###

Assay: Binding affinity to Mycobacterium smegmatis ATCC 700084 CYP51 at pH7.5
Design: species or system Mycolicibacterium smegmatis
MEASURED_PROPERTY: log10 Kd (log10 of the value in nM)

COMPOUND | NUMERIC_VALUE
Clc1ccc(COC(Cn2ccnc2)c2ccc(Cl)cc2Cl)c(Cl)c1 (configuration not stated) | 3.06
Clc1ccc(COC(Cn2ccnc2)c2ccc(Cl)cc2Cl)cc1 (configuration not stated) | 2.94
OC(Cn1cncn1)(Cn1cncn1)c1ccc(F)cc1F | 4.29
CC(=O)N1CCN(c2ccc(OCC3COC(Cn4ccnc4)(c4ccc(Cl)cc4Cl)O3)cc2)CC1 (configuration not stated) | 3.87
Clc1ccccc1C(c1ccccc1)(c1ccccc1)n1ccnc1 | 2.79
CCC(C)n1ncn(-c2ccc(N3CCN(c4ccc(OCC5COC(Cn6cncn6)(c6ccc(Cl)cc6Cl)O5)cc4)CC3)cc2)c1=O (configuration not stated) | 3.10
C[C@@H](c1ncncc1F)[C@](O)(Cn1cncn1)c1ccc(F)cc1F | 3.77

###

Assay: Binding affinity to Mycobacterium smegmatis ATCC 700084 CYP164A2 in presence of 0.2 M NaCl
Parameters: species or system Mycolicibacterium smegmatis

SMILES_RECORD | OUTPUT_UNIT | Kd
C[C@@H](c1ncncc1F)[C@](O)(Cn1cncn1)c1ccc(F)cc1F | µM | 20.1

###

Molecular target: Cytochrome P450 130 (Mycobacterium tuberculosis)
Sequence (P9WPN5 whole entry): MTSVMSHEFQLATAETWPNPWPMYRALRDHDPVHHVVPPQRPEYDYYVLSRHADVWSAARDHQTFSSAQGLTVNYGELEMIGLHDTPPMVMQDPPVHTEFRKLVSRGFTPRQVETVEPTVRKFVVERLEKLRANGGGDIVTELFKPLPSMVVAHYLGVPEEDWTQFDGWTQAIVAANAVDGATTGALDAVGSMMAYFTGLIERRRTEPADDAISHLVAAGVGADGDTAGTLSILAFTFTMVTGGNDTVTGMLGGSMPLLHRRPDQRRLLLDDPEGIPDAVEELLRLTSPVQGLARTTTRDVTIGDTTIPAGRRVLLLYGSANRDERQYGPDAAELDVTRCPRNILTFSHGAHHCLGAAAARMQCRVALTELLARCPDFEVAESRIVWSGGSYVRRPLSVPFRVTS
MEASURED_PROPERTY: Kd

SMILES_RECORD | RESULT
Clc1ccccc1C(c1ccccc1)(c1ccccc1)n1ccnc1 | 13.3 µM

###

Biological target: Lanosterol 14-alpha demethylase (Bos taurus, UniProt Q4PJW3)
Sequence (Q4PJW3 whole entry): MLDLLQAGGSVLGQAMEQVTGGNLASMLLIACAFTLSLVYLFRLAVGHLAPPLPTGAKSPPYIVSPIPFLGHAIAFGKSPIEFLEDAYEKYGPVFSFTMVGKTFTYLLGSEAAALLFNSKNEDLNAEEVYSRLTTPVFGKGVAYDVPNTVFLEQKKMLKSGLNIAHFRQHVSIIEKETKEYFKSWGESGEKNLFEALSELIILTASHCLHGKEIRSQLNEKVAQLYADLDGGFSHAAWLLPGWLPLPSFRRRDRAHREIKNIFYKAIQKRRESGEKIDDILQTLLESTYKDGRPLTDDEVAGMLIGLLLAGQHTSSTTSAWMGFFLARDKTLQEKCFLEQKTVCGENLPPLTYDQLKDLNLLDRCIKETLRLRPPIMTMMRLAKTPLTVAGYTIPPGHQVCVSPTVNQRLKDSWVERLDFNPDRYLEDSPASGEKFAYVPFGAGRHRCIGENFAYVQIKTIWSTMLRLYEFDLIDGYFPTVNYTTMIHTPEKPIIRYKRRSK
pKd: −log10 of the molar value.
MEASURED_PROPERTY: pKd

MOLECULE | NUMERIC_VALUE
CC(=O)N1CCN(c2ccc(OCC3COC(Cn4ccnc4)(c4ccc(Cl)cc4Cl)O3)cc2)CC1 (stereo unspecified) | 6.49

FYI, the data here is from ChEMBL document CHEMBL1671646.
